assay: Selectivity index, ratio of CC50 for HIV2 ROD infected in human MT4 cells to EC50 for HIV1 3B; format: toxicity, cell-based; conditions: MT4 cells infected with HIV2 ROD, read-out: Ratio CC50/EC50
reported-metric: selectivity ratio

O=C(CSc1nccnc1-c1ccccc1Cl)Nc1ccccc1Br ... < 1
O=C(CSc1nccnc1-c1ccccc1Cl)Nc1ccccc1[N+](=O)[O-] ... < 1
O=C(CSc1nccnc1-c1ccccc1Cl)Nc1ccccc1F ... < 1
O=C(CSc1nccnc1-c1ccccc1Cl)Nc1ccccc1 ... < 1
Cc1ccc2sc(NC(=O)CSc3nccnc3-c3ccccc3Cl)nc2c1 ... < 1
O=C(CSc1nccnc1-c1ccccc1Cl)Nc1cccnc1Cl ... < 1

IN: Need selectivity ratio of `Nc1ccn([C@H]2CC[C@@H](CO)O2)c(=O)n1` , thanks.
OUT: > 74

IN: Need selectivity ratio of `Cc1ccc(NC(=O)CSc2nccnc2-c2ccccc2Cl)c(Br)c1` , thanks.
OUT: < 1

src = ChEMBL document CHEMBL2203239
